Data credit: PubChem BioAssay AID425

Below, each entry is listed with its recorded inhibition.
Target Under Test: Dual specificity protein phosphatase 6 (Rattus norvegicus) (UniProt Q64346)
Sequence (Q64346 whole entry, looked up): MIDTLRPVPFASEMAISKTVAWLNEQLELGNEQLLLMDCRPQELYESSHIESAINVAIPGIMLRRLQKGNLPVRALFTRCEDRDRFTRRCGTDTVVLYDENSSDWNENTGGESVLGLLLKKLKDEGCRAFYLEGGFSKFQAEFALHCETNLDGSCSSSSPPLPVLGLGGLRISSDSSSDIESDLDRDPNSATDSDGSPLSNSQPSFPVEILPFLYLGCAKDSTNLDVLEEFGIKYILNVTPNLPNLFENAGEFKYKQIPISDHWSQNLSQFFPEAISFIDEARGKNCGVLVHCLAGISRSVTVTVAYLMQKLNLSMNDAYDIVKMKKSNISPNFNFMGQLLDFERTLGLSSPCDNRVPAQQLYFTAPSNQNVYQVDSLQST
Assay Explanation: MKP-3 phosphatase inhibitors, primary screen, biochemical, rat enzyme, in vitro (AID 425);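 also: plate controls were vehicle for no effect and reference inhibitor for full effect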
Recorded Conditions: recombinant MKP-3 phosphatase activity, fluorescence; at 20 µM; hits give high values
The campaign covered roughly 110,000 compounds. About 190 (0.17%) were called active. Shown is part of a subset that was picked to be rich in actives. Entries with a potency or affinity are not part of this list.
Write the value in % as a bare number.

Cc1cc(/C=C2\C(=O)NC(=S)N(c3cccc(Cl)c3)C2=O)c(C)n1C: -0.4
N#Cc1c(N)sc2c1CCN(Cc1ccccc1)C2: 14.1
O=C(NC(Nc1ccc([N+](=O)[O-])cc1)C(Cl)(Cl)Cl)c1cccc(I)c1 (centres undefined): 1.1
O=C1NC(=S)N(c2cccc(Cl)c2)C(=O)/C1=C\c1ccc(N2CCCC2)cc1: 19.3
CC(=O)N1CCC(C(=O)Nc2ccccc2)(N(Cc2ccccc2)C(=O)c2cccnc2)CC1: -4.2

### Prompt Dear colleague, I am looking for the recorded inhibition of the following molecule: `CCOc1ccccc1C=Nc1ccc(O)cc1`
### Response 116

### Prompt Could you do the same for O=[N+]([O-])c1ccc(C(O)CN2CCN(C/C=C/c3ccccc3)CC2)cc1 (centres undefined) , please?
### Response 3.6

### Prompt Can you handle `Cc1ccc(-n2c3c(cc(C(=O)NCCCN4CCOCC4)c2=O)C(=O)CC(C)(C)C3)cc1` next?
### Response -7.6

### Prompt Let us now turn to `Cc1ccc2[nH]c(C)c(CC(=O)N/N=C/c3cccnc3)c2c1`
### Response -2

### Prompt Moving on to `O=C(O)c1ccccc1-c1ccccc1/C=N/O`
### Response -1.8

### Prompt Next molecule up: `CCOc1ccc(NC(=O)c2cccc(F)c2)cc1`
### Response 4.1

### Prompt Next: `N#Cc1ccc(N=Cc2cccc(O)c2O)cc1`
### Response -1.9

###

Target Under Test: Dual specificity protein phosphatase 6 (Rattus norvegicus)
Assay Explanation: MKP-3 phosphatase inhibitors, primary screen, biochemical, rat enzyme, in vitro (AID 425);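 also: plate controls were vehicle for no effect and reference inhibitor for full effect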
Recorded Conditions: recombinant MKP-3 phosphatase activity, fluorescence; at 20 µM; hits give high values
About 190 (0.17%) of roughly 110,000 compounds were called active. For the sample, actives were picked, then their nearest neighbours and some compounds at random. Results with a measured potency or affinity are listed apart.
inhibition overview
State the answer as a number, implicitly in %.

CC1=CC(=O)C=C/C1=N/OC1=C(O/N=C2/C=CC(=O)C=C2C)C(=O)c2ccccc2C1=O: 66
COc1cccc(C2/C(=C(\O)c3c(C)nc4c(C)cccn34)C(=O)C(=O)N2CCCN(C)C)c1 (stereo not given): -2.7
CC1=C/C(=N\OC2=C(O/N=C3/C=CC(=O)C(C)=C3)C(=O)c3ccccc3C2=O)C=CC1=O: 42.8

### Prompt Please report the recorded inhibition for CCOc1ccccc1NC(=O)c1c(NC(=O)c2cccc(F)c2)sc2c1CCC(C)C2 (stereo not given) .
### Response 3.6

### Prompt Further, for CC(C)(C)C(=O)CC(O)(c1ccccc1)C(F)(F)C(F)F (stereo not given) ?
### Response -1.8

### Prompt // next record `COc1ccc(S(=O)(=O)Nc2cccc([N+](=O)[O-])c2C)cc1`
### Response -0.4

### Prompt Next record, please: `O=C(Cc1ccccc1)Nc1ccccc1C(=O)N1CCN(Cc2ccccc2)CC1`
### Response 2.5

### Prompt Next compound: `O=C(CN1C(=O)/C(=C/c2ccccc2)SC1=S)Nc1cccc(Br)c1`
### Response 2.3

### Prompt Note, next up: `CC1=CC(=O)C=C/C1=N\OS(=O)(=O)c1ccccc1`
### Response 8.7

### Prompt Try this compound too: `O=C(O)CCCCCN1C(=O)/C(=C2/C(=O)N(CC(=O)O)c3ccccc32)SC1=S`
### Response 1
